- Test system: RPMI-8226 leukemia
- TEST METHOD NOTES: NCI-60 one-dose screen, 48 h
- ASSAY CONTEXT: 10 µM
About 83,000 compounds went through this panel and 20% of them were active in at least one assay; those are over-represented in the sample as a whole. Active and inactive are the calls of the source. Rule for the calls: active = growth percent below 10; inactive = the rest.
# output must be one of active, inactive

Please review the entries below; each comes with its answer.
> print(dat)
     smiles.string  experimental.system  assigned.label
1  CCCCC1(O)CCCCC1   RPMI-8226 leukemia        inactive
2  Cc1cc(Br)nnc1Br   RPMI-8226 leukemia        inactive

I would be grateful if you could indicate the recorded call for CS(=O)(=O)c1nccc(-c2c(-c3cccc(OCCc4ccccc4)c3)nc3sccn23)n1 .
inactive

What would you report for CS(=O)(=O)c1nccc(-c2c(-c3cccc(OCc4ccc(F)cc4)c3)nc3sccn23)n1 ?
inactive

What would you report for COc1ccc(-c2n[nH]nc2-c2cc(OC)c(OC)c(OC)c2)cc1 ?
active

What would you report for C#CCOc1c(OC)cc(C(=O)/C(C)=C/c2cccc(N=[N+]=[N-])c2)cc1OC ?
inactive

---

- Test system: OVCAR-3 ovarian
- TEST METHOD NOTES: NCI-60 one-dose screen, 48 h (100 = growth as untreated, 0 = no growth, -100 = all killed)
- ASSAY CONTEXT: 10 µM
About 83,000 compounds went through this panel and 20% of them were active in at least one assay; those are over-represented in the sample as a whole.
ATTRIBUTE MEASURED: growth (%)
One number for each entry, in %.

Take each entry in turn and give its growth.
1. O=C(/C=C/c1cccc(B(O)O)c1)c1cccc(B(O)O)c1
2. COc1cc(-c2ccc[nH]2)[nH]c1/C=C1\N=C(C)C(C(=O)NC(C)C)=C1C
3. CC[C@@H](C(=O)[C@H](C)[C@H](O)[C@@H](C)[C@H]1O[C@H]([C@@H](CC)C(=O)O)CC[C@H]1C)C1O[C@]2(C=C[C@@H](O)[C@]3(CC[C@@](C)([C@H]4CC[C@](O)(CC)[C@H](C)O4)O3)O2)[C@H](C)C[C@@H]1C (stereo not given in full)
4. CC(=O)C1CCC2C3CC=C4CC(SC(=N)N)CCC4(C)C3CCC12C (stereo not given)
5. C#CCOc1c(OC)cc(C(=O)/C(C)=C/c2cccc(N=[N+]=[N-])c2)cc1OC

-28.2
19.5
25.8
63.1
-0.611

Take each entry in turn and give its growth.
1. OCC1OC2C(NC(=S)N2c2ccccc2)C(O)C1O (stereo not given)
2. Nc1ccc(CC[C@H]2CCC/C=C/[C@@H]3C[C@H](O)C[C@H]3[C@H](O)/C=C/C(=O)O2)cc1
3. Cn1cnc([N+](=O)[O-])c1/C=C1\Oc2ccc(Br)cc2C1=O
4. C1CN(CC2CCC(CN3CCOCC3)O2)CCO1 (stereo not given)
5. C/C(=C/CCC(C)[C@@H]1CC[C@]2(C)C3=C(CC[C@@]12C)[C@@]1(C)CCC(=O)C(C)(C)[C@@H]1CC3)C(=O)O (stereo not given in full)
6. CC(=O)COc1ccc(Cl)cc1Cl
7. COc1ccc(-c2nn(-c3cccc(Cl)c3)cc2-c2nc(N)[nH]c(=O)c2C#N)cc1
8. CCOC(=O)c1cc(C(=O)c2cc(OC)c(OC)c(OC)c2)n2nc(C)ccc12

1. 102
2. -13.4
3. 99.7
4. 112
5. -96
6. 120
7. 106
8. 12.5

Take each entry in turn and give its growth.
1. Cc1ccc(N=Nc2ccccc2)cc1
2. COc1cc(-c2nc3ccccc3o2)cc(CN2CCCCC2)c1O
3. COc1cc(Cc2cc(-c3ccccc3)n[nH]c2=O)cc(OC)c1OC
4. CCc1cc(Cl)c(OC)c(C(=O)NCC2CCCN2CC)c1O (stereo not given)
5. O=[N+]([O-])c1cccc(/C=N/NC(=S)NC23CC4CC(CC(C4)C2)C3)c1
6. O=C(CCCCC(=O)Oc1c(Cl)cc(Cl)cc1[N+](=O)[O-])Oc1c(Cl)cc(Cl)cc1[N+](=O)[O-]

1: 105; 2: 59; 3: 47.2; 4: 100; 5: 85.9; 6: 105

Would you kindly share the measured growth for COc1ccc(Cl)cc1Nc1nc(C(F)(F)F)ccc1C(=O)N/N=C/c1ccc(Cl)cc1 ?
-34.7

---

- Test system: HOP-92 NSCLC
- TEST METHOD NOTES: NCI-60 one-dose screen, 48 h (100 = growth as untreated, 0 = no growth, -100 = all killed)
- ASSAY CONTEXT: 10 µM
Compounds without any hit were thinned out: in the full panel of roughly 83,000, 20% have a hit.
So basically: growth at 80% or higher? That is satisfied. Lower than 80%? That is not satisfied.

Please review the entries below; each comes with its answer.
MOLECULE	EXPERIMENTAL SYSTEM	ASSIGNED LABEL
C=CCN(CC=C)C(=O)[C@H](CC)[C@@H]1CC[C@@H](C)[C@@H]([C@H](C)[C@@H](O)[C@@H](C)C(=O)[C@H](CC)C2O[C@]3(C=CC(=O)[C@]4(CC[C@@](C)([C@H]5CC[C@](O)(CC)[C@H](C)O5)O4)O3)[C@H](C)C[C@@H]2C)O1 (some centres undefined)	HOP-92 NSCLC	not satisfied
O=[N+]([O-])c1ccc(NCSc2ccc(Cl)cc2)cc1	HOP-92 NSCLC	satisfied
COc1ccc(/C=C2/SC(=S)NC2=O)c(OC)c1OC	HOP-92 NSCLC	not satisfied
O=c1oc2c(cc1-c1ccc(F)cc1)C(O)Oc1ccccc1-2 (centres undefined)	HOP-92 NSCLC	not satisfied
CC(CN(C)C)Oc1ccccc1NC1=C(Cl)C(=O)C(Nc2ccccc2OC(C)CN(C)C)=C(Cl)C1=O (centres undefined)	HOP-92 NSCLC	not satisfied
O=C(O)c1ccc(-n2cc(CNc3ccc(Oc4ccccc4)cc3)c(-c3ccccc3)n2)cc1	HOP-92 NSCLC	satisfied

Textbook exercise: given the entry CCc1cc(Cl)c(OC)c(C(=O)NCC2CCCN2CC)c1O (centres undefined) , state whether its growth is greater than or equal to 80%.
not satisfied

What would you report for COc1cc(OC)c2c(=O)c(O)c(-c3ccccc3)oc2c1 ?
not satisfied

What would you report for COc1ccc2nc3cc(Cl)ccc3c(Nc3cc(CN4CCCC4)c(O)c(CN4CCCC4)c3)c2n1 ?
not satisfied

What would you report for COc1cccc(N=Nc2cccc(OC)c2)c1 ?
satisfied

What would you report for O=C1c2ccccc2C(=O)c2c1ccc(C(Br)Br)c2Cl ?
not satisfied

What would you report for OCC1OC2C(NC(=S)N2c2ccccc2)C(O)C1O (centres undefined) ?
satisfied

What would you report for CC(C)=CCC/C(C)=C/CC/C(C)=C/CC/C=C(\C)CC/C=C(\C)CCC(=O)Nc1ccn(C2OC(CO)C(O)C2(F)F)c(=O)n1 (centres undefined) ?
not satisfied

What would you report for OCCn1cccn1 ?
satisfied

What would you report for COc1cc(CNC(=O)C2CSC3(C)c4ccccc4C(=O)N23)cc(OC)c1OC (centres undefined) ?
satisfied

---

- Test system: PC-3 prostate
- TEST METHOD NOTES: NCI-60 one-dose screen, 48 h
- ASSAY CONTEXT: 10 µM
This is part of a sample that, as a whole, favours compounds with a hit. Of some 83,000 tested, about 20% had one in any assay. The source made the active and inactive calls. The calls were made as follows: active = growth percent below 10; inactive = the rest.
# output must be one of True for active, False for inactive

MOLECULE	ASSIGNED LABEL
C=CCn1c(SCC(=O)Nc2ccc(C(=O)/C=C/c3ccc(OC)cc3)cc2)nnc1-c1ccc(OC)c(OC)c1	False
CCOc1ccccc1/C=N\N=C(\N)N/N=C/c1ccccc1OCC	False
Cc1ccc(C2=NN(c3ccc(S(C)(=O)=O)cc3)C(=O)CC2)cc1	False
O=C1c2ccccc2C(=O)N1CCCCNc1ccccc1	False
S=c1cnc2ccccc2[nH]1	False
COc1ccc2c(c1)C(=O)/C(=C/c1ccc([N+](=O)[O-])o1)O2	False

# evaluate next
I would be grateful if you could indicate the recorded call for CC(C)(C)OC(=O)CN1CCc2c(sc3ncnc(N/N=C/c4ccccc4Br)c23)C1 .
False

---

- Test system: A498 renal
- TEST METHOD NOTES: NCI-60 one-dose screen, 48 h (100 = growth as untreated, 0 = no growth, -100 = all killed)
- ASSAY CONTEXT: 10 µM
About 83,000 compounds went through this panel and 20% of them were active in at least one assay; those are over-represented in the sample as a whole.
Entries whose growth is below 80% take Condition met; entries at or above 80% take Condition not met.

Please review the entries below; each comes with its answer.
MOLECULE	EXPERIMENTAL SYSTEM	ASSIGNED LABEL
NC1=NC(c2ccccc2)C2=C(N1)/C(=C/c1ccccc1)CCC2 (stereo not given)	A498 renal	Condition met
C=CCn1c(SCC(=O)Nc2ccc(C(=O)/C=C/c3ccc(OC)cc3)cc2)nnc1-c1ccc(OC)c(OC)c1	A498 renal	Condition not met
C1CN(CC2CCC(CN3CCOCC3)O2)CCO1 (stereo not given)	A498 renal	Condition not met
CCOC(=O)C(C)(c1ccccc1)c1ccccc1	A498 renal	Condition not met
Clc1ccc(C2=NN=C3C(Cc4ccccc4)=Nc4ccccc4N3C2)cc1	A498 renal	Condition met
COc1ccccc1/C=N\N/C(N)=N\N=C\c1ccccc1OC	A498 renal	Condition met

For this molecule, is growth lower than 80%? O=C(CN(C1CCCCC1)C1CCCCC1)Nc1ccc(S(=O)(=O)c2ccc(NC(=O)CN(C3CCCCC3)C3CCCCC3)cc2)cc1
Condition not met

What would you report for O=C(CCCCCCC(=O)Nc1ccccc1)NO ?
Condition met
